- assayed target: SABP2 (Nicotiana tabacum, UniProt Q6RYA0)
- Construct: Soluble proteins were extracted from the powdered leaves; from tissue; host or cells: tobacco leaf (cv. Xanthi nc), 50-75% ammonium sulfate fraction
- Sequence (Q6RYA0 whole entry): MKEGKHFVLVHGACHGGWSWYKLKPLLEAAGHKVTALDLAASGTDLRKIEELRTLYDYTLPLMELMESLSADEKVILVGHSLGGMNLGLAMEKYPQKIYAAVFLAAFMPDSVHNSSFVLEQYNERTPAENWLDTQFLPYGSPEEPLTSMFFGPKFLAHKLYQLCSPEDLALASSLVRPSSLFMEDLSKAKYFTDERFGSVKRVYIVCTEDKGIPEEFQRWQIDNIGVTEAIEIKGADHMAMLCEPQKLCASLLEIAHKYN
- method description: [3H]SA competition assay with unlabeled SA and SA analogues
- Format: binding, tobacco
observed property: pIC50
Remember, pIC50 is on a log scale: it is -log10 of the molar concentration.

Look up pIC50 for this molecule: O=C(O)c1cc(Cl)nc(Cl)c1 [INA, 2,6-dichloroisonicotinic acid]
4.15

Look up pIC50 for this molecule: CSC(=O)c1cccc2nnsc12 [BTH]
7.00

Look up pIC50 for this molecule: O=C(O)c1ccccc1O [SA, salicylic acid]
5.82

====

- assayed target: SABP2 (Nicotiana tabacum, UniProt Q6RYA0)
- Construct: Soluble proteins were extracted from the powdered leaves; from tissue; host or cells: tobacco leaf (cv. Xanthi nc), 50-75% ammonium sulfate fraction
- method description: [3H]SA competition assay with unlabeled SA and SA analogues
- Type: binding, tobacco
- experimental conditions: 50-75% fraction; 0.1 μM [3H]SA; on ice 2 hours; estimated from FIG. 6; read-out: IC50 of competition for [3H]SA binding
observed property: pIC50
Remember, pIC50 is on a log scale: it is -log10 of the molar concentration.

Look up pIC50 for this compound: O=C(O)c1cc(O)ccc1O [2,5-dihydroxybenzoic acid]
4.70

Look up pIC50 for this compound: O=C(O)c1cc(Cl)ccc1O [5-chloroSA, 5-chlorosalicylic acid]
6.52

Look up pIC50 for this compound: O=C(O)c1c(O)cccc1O [2,6-dihydroxybenzoic acid]
5.70

Look up pIC50 for this compound: O=C(O)c1cccc(O)c1 [3-hydroxybenzoic acid]
3.98

All values here come from patent US6136552A.
